biological target: RET (Homo sapiens); construct: purchased Eurofins DiscoverX KINOMEscan (scanTK); assay: KINOMEscan ScanTK; type: binding; details: @1000nM, read-out: %Control
Sequence (P07949 29-1114): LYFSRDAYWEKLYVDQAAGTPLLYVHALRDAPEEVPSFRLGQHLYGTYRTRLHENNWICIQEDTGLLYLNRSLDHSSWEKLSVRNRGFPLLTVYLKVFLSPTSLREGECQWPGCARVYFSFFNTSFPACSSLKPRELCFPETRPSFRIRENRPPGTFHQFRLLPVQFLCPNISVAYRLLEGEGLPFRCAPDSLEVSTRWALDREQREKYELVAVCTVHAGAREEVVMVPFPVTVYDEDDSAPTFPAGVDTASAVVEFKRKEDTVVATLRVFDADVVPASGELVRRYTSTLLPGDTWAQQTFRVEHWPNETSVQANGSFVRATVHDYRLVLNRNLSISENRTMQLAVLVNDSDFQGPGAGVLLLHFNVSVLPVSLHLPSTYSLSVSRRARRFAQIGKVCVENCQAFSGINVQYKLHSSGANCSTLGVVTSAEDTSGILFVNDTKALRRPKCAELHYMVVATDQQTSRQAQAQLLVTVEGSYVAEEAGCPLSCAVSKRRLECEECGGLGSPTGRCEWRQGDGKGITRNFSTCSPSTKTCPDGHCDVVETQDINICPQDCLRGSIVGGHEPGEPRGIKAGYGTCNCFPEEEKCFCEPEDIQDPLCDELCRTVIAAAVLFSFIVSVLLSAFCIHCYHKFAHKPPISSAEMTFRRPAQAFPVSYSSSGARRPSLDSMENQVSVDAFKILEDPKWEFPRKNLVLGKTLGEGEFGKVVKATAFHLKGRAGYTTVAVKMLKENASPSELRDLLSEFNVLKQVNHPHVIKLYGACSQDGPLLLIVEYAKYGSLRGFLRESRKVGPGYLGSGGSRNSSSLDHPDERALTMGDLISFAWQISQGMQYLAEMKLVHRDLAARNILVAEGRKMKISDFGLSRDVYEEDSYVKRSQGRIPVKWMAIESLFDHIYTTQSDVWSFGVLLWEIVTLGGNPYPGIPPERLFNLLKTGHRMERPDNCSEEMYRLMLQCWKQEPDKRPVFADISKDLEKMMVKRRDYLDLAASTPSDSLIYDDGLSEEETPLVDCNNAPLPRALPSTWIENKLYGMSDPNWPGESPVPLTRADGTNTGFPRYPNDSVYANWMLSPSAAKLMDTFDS
Here, each record is paired with measured remaining binding at 1 µM data.
RECORDED_ENDPOINT: remaining binding at 1 µM (%)

> print(dat)
                                   compound          recorded.endpoint  measured.result
1  C=CC(=O)N1CCC[C@@H](n2nc(-c3ccc(Oc4ccccc4)cc3)c3c(N)ncnc32)C1 [Compound 1g, Ibrutinib, reference compound]  remaining binding at 1 µM               12
2  COC(=O)c1cnc(S(C)(=O)=O)nc1N1CCCC(n2nc(-c3ccc(Oc4ccccc4)cc3)c3c(N)ncnc32)C1 (centres unmarked) [Compound 8b]  remaining binding at 1 µM               56
3  CCOC(=O)c1cnc(S(C)(=O)=O)nc1N1CCC[C@@H](n2nc(-c3ccc(Oc4ccccc4)cc3)c3c(N)ncnc32)C1 [Compound 8c]  remaining binding at 1 µM               84
4  CNC(=O)c1cnc(S(C)(=O)=O)nc1N1CCCC(n2nc(-c3ccc(Oc4ccccc4)cc3)c3c(N)ncnc32)C1 (centres unmarked) [Compound 8d]  remaining binding at 1 µM               31
5  Cc1cnc(S(C)(=O)=O)nc1N1CCCC(n2nc(-c3ccc(Oc4ccccc4)cc3)c3c(N)ncnc32)C1 (centres unmarked) [Compound 8a]  remaining binding at 1 µM               56
